Recorded values, source the NTF2 design screens of Basanta et al. (2020).

Assay: protease stability score; higher = more stable; yeast display proteolysis, trypsin and chymotrypsin;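 also: relative to predicted unfolded state with 0 unfolded-like and 1 meaning tenfold more protease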
Could you please report measured protease stability score for the items listed next?
Answer with the value's number alone.

Query string: Which protease stability score is listed for DETEHHAREMAELLLHVILTGDEHLMERLIDPDVKLHSFFNGRQFHRIGMEELKRYLEEWRREIRLKDVRIRQFEVQGDKFRLDMEVEGNINGRDNVTKTELIIITVNGRLHEIDIRIE ?
Result string: 2.1

Query string: Any idea what protease stability score was measured for HEDEEMLHRLAELVEELFRTGDEEMHDHLMDPHARINIDGRDLHGRENMRILWQKLGIERVHVEFHDVKAIGDKASVHTFLEVNGVKVEILIRSEKINGRWVITQINIVFH ?
Result string: 0.386

Query string: Item NEINRHLHEAFKKLINVMMTGDEEESTELLDPNARINFNGKDFWGWNELRKSMHEARIHHIQITSVRYIGDKIIIHGTVDGEFDGQRKEVEMEIFSRKFNGQWFFESIIIR has what recorded protease stability score?
Result string: 1.28

Query string: Which value of protease stability score has been reported for DEHDKLLKELSERMFELWETGDEDRLHKLADPHALSRVGEFSIHGMRNHMEWLREWLRRVKNATIHVRDVDLQGNKSRFDHELIIDGVELKVIDNIVLVNGRIKEIRIEIN in the records?
Result string: 0.027

Query string: What protease stability score value was documented for this sequence, DHVEHEVENVLRKTLHSFLTGDFELLHRLADPHVRSDINGVEIHGWEKLSKWILTLIEQVDHSEFDLKDIRLQGDFVRIHGELILRFNGKHIEIRVQSHVEKIDGRWVIHAVKLK ?
Result string: 1.11

Query string: Requested field: protease stability score. Item: DEEEHRLRHFSELFTELFKTGDWKTFAKLMDPEVRTHSEWNGQEFSDHGMEAIVHFFKEFVDKFKNLTFHLTRIEVQGDKVHIDTILIFNGKTFTTRLEFIVVNGRIKEVRYHVK
Result string: 1.13
